Biological target: human A2A adenosine receptor (Homo sapiens, UniProt P29274)
Construct: expressed in transfected cells; host or cells: HEK293 or CHO cells
Sequence (P29274 whole entry): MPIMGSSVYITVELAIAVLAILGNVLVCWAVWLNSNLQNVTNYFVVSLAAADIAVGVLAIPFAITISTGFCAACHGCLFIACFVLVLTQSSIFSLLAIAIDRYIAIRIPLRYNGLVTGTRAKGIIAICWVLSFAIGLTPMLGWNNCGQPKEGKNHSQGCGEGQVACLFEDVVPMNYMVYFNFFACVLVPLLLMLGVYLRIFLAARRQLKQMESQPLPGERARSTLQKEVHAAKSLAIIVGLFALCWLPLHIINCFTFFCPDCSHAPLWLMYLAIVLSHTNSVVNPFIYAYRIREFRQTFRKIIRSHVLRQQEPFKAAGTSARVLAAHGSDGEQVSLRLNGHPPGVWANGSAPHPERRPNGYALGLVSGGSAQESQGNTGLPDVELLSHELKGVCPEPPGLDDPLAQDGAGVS
Experiment: A2A binding affinity, Method (B): scintillation proximity assay (SPA) with [3H]SCH58261
Settings: membranes of HEK293 or CHO cells expressing the human receptor
Description: Method (A) describes the procedure used to measure A2A binding affinity using radioligand binding. Method (B) describes the procedure used to measure A2A binding affinity using SPA technology. The method used to measure A2B binding affinity is also described below. […] The A2B IC50 value measured using the A2B binding affinity assay is shown in the table next to the compound under the corresponding A2A value. […]
pIC50: −log10 of the molar value.
Below, each entry is listed alongside its reported pIC50.
measured metric: pIC50

{"chemical smiles": "COc1cccc2c1nc(N)n1nc(CNC(C)(C)c3cccnc3)nc21", "tested on": "human A2A adenosine receptor (Homo sapiens, UniProt P29274)", "result": 7.69}
{"chemical smiles": "CCN(Cc1ccc(OC(F)(F)F)cc1)Cc1nc2c3cccc(OC)c3nc(N)n2n1", "tested on": "human A2A adenosine receptor (Homo sapiens, UniProt P29274)", "result": 8.49}
{"chemical smiles": "COc1cccc2c1nc(N)n1nc(CN(CCC(F)(F)F)CC3CCN(c4ncc(F)cn4)CC3)nc21", "tested on": "human A2A adenosine receptor (Homo sapiens, UniProt P29274)", "result": 7.42}
{"chemical smiles": "COc1cccc2c1nc(N)n1nc(CCNCC(F)(F)C(F)(F)F)nc21", "tested on": "human A2A adenosine receptor (Homo sapiens, UniProt P29274)", "result": 7.96}
{"chemical smiles": "COc1cccc2c1nc(N)n1nc(CNCc3ccc(Br)cc3)nc21", "tested on": "human A2A adenosine receptor (Homo sapiens, UniProt P29274)", "result": 8.27}
{"chemical smiles": "COc1cccc2c1nc(N)n1nc(CNCc3ccc(OC(F)(F)F)cc3)nc21", "tested on": "human A2A adenosine receptor (Homo sapiens, UniProt P29274)", "result": 8.05}
{"chemical smiles": "COc1cccc2c1nc(N)n1nc(CNCc3cccc(C(F)(F)F)c3)nc21", "tested on": "human A2A adenosine receptor (Homo sapiens, UniProt P29274)", "result": 7.95}
{"chemical smiles": "COc1cccc2c1nc(N)n1nc(CC(=O)NCc3cccnc3)nc21", "tested on": "human A2A adenosine receptor (Homo sapiens, UniProt P29274)", "result": 7.35}
{"chemical smiles": "COc1cccc2c1nc(N)n1nc(CN(Cc3ccc(C(F)(F)F)cc3)S(=O)(=O)C(F)(F)F)nc21", "tested on": "human A2A adenosine receptor (Homo sapiens, UniProt P29274)", "result": 6.94}
{"chemical smiles": "COc1cccc2c1nc(N)n1nc(CCCNCc3ccc(C(F)(F)F)cc3)nc21", "tested on": "human A2A adenosine receptor (Homo sapiens, UniProt P29274)", "result": 8.06}
{"chemical smiles": "COc1cccc2c1nc(N)n1nc(CCNCC(C)(F)F)nc21", "tested on": "human A2A adenosine receptor (Homo sapiens, UniProt P29274)", "result": 7.91}
{"chemical smiles": "COc1cccc2c1nc(N)n1nc(CN(Cc3ccc(C(F)(F)F)cc3)CC3CC3)nc21", "tested on": "human A2A adenosine receptor (Homo sapiens, UniProt P29274)", "result": 8.52}
{"chemical smiles": "COc1cccc2c1nc(N)n1nc(CN(Cc3ccc(C(F)(F)F)nc3)CC3CC3)nc21", "tested on": "human A2A adenosine receptor (Homo sapiens, UniProt P29274)", "result": 7.62}
{"chemical smiles": "COc1cccc2c1nc(N)n1nc(CN(Cc3ccc(F)c(F)c3F)CC3CC3)nc21", "tested on": "human A2A adenosine receptor (Homo sapiens, UniProt P29274)", "result": 8.32}
{"chemical smiles": "COc1cccc2c1nc(N)n1nc(CNCc3ccc(C(C)(C)C)cc3)nc21", "tested on": "human A2A adenosine receptor (Homo sapiens, UniProt P29274)", "result": 8.37}
{"chemical smiles": "COc1cccc2c1nc(N)n1nc(CN(Cc3ncco3)CC3CC3)nc21", "tested on": "human A2A adenosine receptor (Homo sapiens, UniProt P29274)", "result": 8.03}
{"chemical smiles": "COc1cccc2c1nc(N)n1nc(CN(Cc3ccc(-c4ccccn4)cc3)CC3CC3)nc21", "tested on": "human A2A adenosine receptor (Homo sapiens, UniProt P29274)", "result": 8.59}
